src = BindingDB's records for doi:10.1021/jm00164a044

Experiment: Muscarinic acetylcholine receptor binding affinity was determined using [3H]NMS for NG108-15 neuroblastoma cells
MEASURED ENDPOINT: pKi
Scale explanation: pKi corresponds to minus log10 of a concentration expressed in moles per litre.

Challenge: Please give the measured pKi for this compound: CC(=O)N(C)CC#CCN1CCCC1
Response given: 5.35

Challenge: // query: CN(CC#CCN1CCCC1)C(=O)CCCCCCCN
Response given: 6.15

Challenge: Please give the result for CN(CC#CCN1CCCC1)C(=O)CCCCCCN too.
Response given: 5.51

Challenge: Check CN(CC#CCN1CCCC1)C(=O)CCCCCCCNC(=O)OC(C)(C)C too.
Response given: 5.72
